Values compiled from patent US20250099420A1.

- Experimental Target: UniProtKB Q6DWJ6
- Sequence (Q6DWJ6 whole entry): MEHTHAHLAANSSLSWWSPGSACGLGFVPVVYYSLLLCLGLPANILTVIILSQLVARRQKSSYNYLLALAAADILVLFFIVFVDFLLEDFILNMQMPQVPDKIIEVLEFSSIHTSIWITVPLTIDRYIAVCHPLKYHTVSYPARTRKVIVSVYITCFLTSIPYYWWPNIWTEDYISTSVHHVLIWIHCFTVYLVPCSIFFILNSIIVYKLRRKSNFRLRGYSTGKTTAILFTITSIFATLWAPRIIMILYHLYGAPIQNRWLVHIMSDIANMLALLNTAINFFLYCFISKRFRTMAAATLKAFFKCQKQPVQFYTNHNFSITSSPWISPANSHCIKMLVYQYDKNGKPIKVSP
- Test Name: GPR139 Agonist titration / agonist counterscreen assay (calcium detection, HEK-GPR139 cells)
- Assay type: cell-based
- Set-up: expressed in transfected cells; host or cells: HEK Aequorin cells, Maxcyte transient transfection
- Condition Notes: GPR139 Agonist Activity; values printed in E-notation without unit; read-out: EC50
Endpoint Name: log10(EC50) (log10 of the value in µM)
The base-10 logarithm of EC50, taken with EC50 in µM, is what appears here.

Recorded result, O=C1N2CN(Cc3ccccc3)CN3C(=O)N4CN(Cc5ccccc5)CN1C4C23 (stereo not drawn) , log10(EC50): -1.31

Recorded result, CN(C)C(CNC(=O)Nc1ccc(Cl)c(Cl)c1)c1cccnc1 (stereo not drawn) , log10(EC50): -0.63

Recorded result, Cc1cccc(NC(=O)NCCc2ccc3c(c2)CCCN3C)c1 , log10(EC50): -1.43

Recorded result, O=C(CN1CCN(Cc2ccccc2Cl)C1=O)NCc1ccccc1Cl , log10(EC50): -1.45

Recorded result, O=C(Cc1cccc2ccccc12)NCC(=O)NNC(=O)c1ccco1 , log10(EC50): -1.22

Recorded result, COc1ccccc1NC(=O)NNC(=O)CSc1cc(C)c(Br)cc1C , log10(EC50): -1.92

Recorded result, COc1ccc(CC(=O)NNC(=O)C(C)Oc2ccc(Cl)cc2Cl)cc1 (stereo not drawn) , log10(EC50): -0.71

Recorded result, COc1ccc(OC)c(NC(=O)NNC(=O)C(C)Oc2ccc(Cl)cc2Cl)c1 (stereo not drawn) , log10(EC50): -1.62

Recorded result, CC(C)CCNC(=O)C1C2C=CC3(CN(Cc4ccccc4Cl)C(=O)C13)O2 (stereo not drawn) , log10(EC50): -1.70

Recorded result, CCC1CCCCN1C(=O)CN1C(=O)NC(C)(c2ccc3ccccc3c2)C1=O (stereo not drawn) , log10(EC50): -1.77

Recorded result, COc1cc(C(C)=O)ccc1OCC(=O)OCC(=O)NCCCc1ccccc1 , log10(EC50): -1.29

Recorded result, O=C(COc1ccccc1F)NNC(=O)CSc1ccc2ccccc2c1 , log10(EC50): -2.01

Recorded result, COc1ccc(C2(C)NC(=O)N(CC(=O)NC3CCCC3)C2=O)cc1 (stereo not drawn) , log10(EC50): -1.70

Recorded result, O=C(CCc1nc2ccccc2s1)NNC(=O)C1CCCCC1 , log10(EC50): -1.00

Recorded result, COc1cc(OC)cc(-c2nnc(NC(=O)Cc3cccc4ccccc34)o2)c1 , log10(EC50): -1.46

Recorded result, Cc1cccc(COc2coc(COc3nccn3C)cc2=O)c1 , log10(EC50): -1.21

Recorded result, Cc1ccc2c(CC(=O)NNC(=O)CC34CC5CC(CC(C5)C3)C4)coc2c1 , log10(EC50): -1.09

Recorded result, CC(NC(=O)CN1C(=O)c2cccc([N+](=O)[O-])c2C1=O)c1ccc(Cl)cc1Cl (stereo not drawn) , log10(EC50): -2.01

###

- System: parental HEK cells
- Test Name: HEK parental Agonist Counterscreen Assay (non-transfected cells)
- Type: cell-based
- Condition Notes: HEK Agonist Activity
Outcome: Condition met for Lipophilic Efficiency (logP) of at least 2; Condition not met for anything lower.

Problem: Please tell me: is the compound Cc1c(C(=O)NC(C)(C)CO)cnn1-c1ncc2c(n1)-c1ccccc1CC2 [SR-01000239973] at or over 2 in terms of Lipophilic Efficiency (logP)?
Solution: Condition met

Problem: Please tell me: is the compound CC(C)C1CC(=O)[C@@H]2C[C@@H](CC2C(=O)CC2CCOc3ccccc3C2)C2C=CC(=C2)CCC(=O)[C@@H](Cc2ccccc2)NC1=O (some centres unmarked) [SR-05000709044] at or over 2 in terms of Lipophilic Efficiency (logP)?
Solution: Condition met

Problem: Please tell me: is the compound CC(NC(=O)Cn1ncc2c(Cl)cccc21)c1ccc2c(c1)OCCO2 (centres unmarked) [SR-01000155068] at or over 2 in terms of Lipophilic Efficiency (logP)?
Solution: Condition met

Problem: Please tell me: is the compound COc1ccc(C2(C)NC(=O)N(CC(=O)Nc3cc(C)ccc3C)C2=O)cc1 (centres unmarked) [SR-01000918716] at or over 2 in terms of Lipophilic Efficiency (logP)?
Solution: Condition met

Problem: Please tell me: is the compound CC(C)CN1CCNC(=O)C1CC(=O)NCCCn1ccc2ccccc21 (centres unmarked) [SR-01000176150] at or over 2 in terms of Lipophilic Efficiency (logP)?
Solution: Condition met

Problem: Please tell me: is the compound COc1ccccc1NC(=O)NNC(=O)CSc1cc(C)c(Br)cc1C [SR-01000061624] at or over 2 in terms of Lipophilic Efficiency (logP)?
Solution: Condition not met

Problem: Please tell me: is the compound O=C(CN1C(=O)NC2(CCc3ccccc3C2)C1=O)Nc1ccccc1Oc1ccccc1 (centres unmarked) [SR-01000039980] at or over 2 in terms of Lipophilic Efficiency (logP)?
Solution: Condition not met

###

What pEC50 was measured for each of the following?
- Test system: parental HEK cells
- Test Name: HEK parental Agonist Counterscreen Assay (non-transfected cells)
- Assay type: cell-based
- Condition Notes: Homo sapiens, HEK293; HEK Agonist Activity section of Table 4 (parental HEK counterscreen)
pEC50: −log10 of the molar value.

Recorded result, COCCn1c(C)c(C(=O)NC(C)CCc2ccccc2)c2nc3ccccc3nc21 (stereo not drawn) , pEC50: < 4.85

Recorded result, CC(Oc1ccc(Cl)cc1Cl)C(=O)NNC(=O)COc1ccccc1 (stereo not drawn) , pEC50: < 4.85

Recorded result, CCCC(=O)C1CCC(C(=O)CC2CCC(c3ccc(C(C)O)cc3)C2=O)CC1 (stereo not drawn) , pEC50: < 4.85

Recorded result, COc1ccccc1CN1CCNC(=O)C1CC(=O)NCCCN1CCc2ccccc21 (stereo not drawn) , pEC50: < 4.85

Recorded result, O=C(CCC1CCCC1)NNC(=O)CSc1ccc(Cl)cc1 , pEC50: < 4.83

Recorded result, CCCCC(O)CCNC(=O)C1CC(=O)N(CCc2ccc(C)cc2)C1 (stereo not drawn) , pEC50: < 4.85

Recorded result, COc1ccc2c(CC(=O)NNC(=O)c3cc(-c4ccccc4)no3)coc2c1 , pEC50: < 4.84

Recorded result, Cc1ccc(CN2CCCN(CC(=O)NC3CCCCCCC3)C2=O)c(Cl)c1 , pEC50: < 4.85

Recorded result, O=C(Cn1ccc2ccccc21)NC1CCN(Cc2ccccc2)CC1 , pEC50: < 4.85

###

- System: parental HEK cells
- Test Name: HEK parental Agonist Counterscreen Assay (non-transfected cells)
- Type: cell-based
- Condition Notes: HEK Agonist Activity section
What Lipophilic Efficiency (logD) was measured for each of the following?
Number only, no unit.

Recorded result, O=C(CN1CCN(C/C=C/c2ccccc2)CC1)NCCCc1ccccc1 , Lipophilic Efficiency (logD): 1.34

Recorded result, COc1ccc(CCN2CC3=C(C2=O)C(c2ccc(F)c(F)c2)NC(=O)N3)cc1 (stereo not drawn) , Lipophilic Efficiency (logD): 3.09

Recorded result, COc1ccc(NC(=O)Cn2ncc3c2-c2ccccc2OC3)cc1Cl , Lipophilic Efficiency (logD): 1.93

Recorded result, O=C(NCCn1ccc2ccccc21)c1cccc(Br)c1 , Lipophilic Efficiency (logD): 0.91

Recorded result, CN(C)C(CNC(=O)Nc1ccc(Cl)c(Cl)c1)c1cccnc1 (stereo not drawn) , Lipophilic Efficiency (logD): 2.35

Recorded result, O=C(CCc1nc2cccnc2n1Cc1cccs1)NCCc1cccs1 , Lipophilic Efficiency (logD): 1.29

Recorded result, O=C(NCCn1ccc2ccccc21)c1cccs1 , Lipophilic Efficiency (logD): 1.77

Recorded result, O=C(CC1C(=O)N(c2ccccc2)C(=O)N1Cc1ccc2c(c1)OCO2)Nc1ccc(Cl)cc1 (stereo not drawn) , Lipophilic Efficiency (logD): 0.07

Recorded result, COc1ccc(CCC(=O)Nc2ccc(OC)c(N3CCCC3=O)c2)cc1 , Lipophilic Efficiency (logD): 2.35

###

What pEC50 was measured for each of the following?
- System: parental HEK cells
- Test Name: HEK parental Agonist Counterscreen Assay (non-transfected cells)
- Format: cell-based
- Condition Notes: HEK Agonist Activity section of Table 4 (parental HEK counterscreen)
pEC50: −log10 of the molar value.

Recorded result, CCCCCCC(=O)NNC(=O)c1c(O)c2ccccc2n(CCC)c1=O [SR-01000360839] , pEC50: < 4.85

Recorded result, CC(C)CCNC(=O)CN1CCN(Cc2ccc(F)cc2Cl)C1=O [SR-01000161248] , pEC50: < 4.85

Recorded result, Cc1ccc2c(c1)CCCN2CC(=O)N(C)c1c(N)n(Cc2ccccc2)c(=O)[nH]c1=O [SR-01000070509] , pEC50: < 4.84

Recorded result, O=C(CN1C(=O)NC2(CCCc3ccccc32)C1=O)N1CCCCCC1 (stereo not drawn) [SR-01000075116] , pEC50: < 4.84

Recorded result, O=C(Cn1ncc2c1-c1ccccc1OC2)Nc1ccc(Cl)cc1 [SR-01000098980] , pEC50: < 4.85

Recorded result, CC12C=CC3(CN(Cc4ccccc4)C(=O)C3C1C(=O)NCC1COc3ccccc3O1)O2 (stereo not drawn) [SR-01000582967] , pEC50: < 4.88

Recorded result, Cc1ccccc1CN1CCC(O)(c2ccc(Cl)c(C(F)(F)F)c2)CC1 [SR-05000022582] , pEC50: < 4.85

Recorded result, NC1=NC(=O)/C(=C\c2ccc(Cl)cc2Cl)S1 [SR-01000310833] , pEC50: < 4.85

Recorded result, COc1ccc(CSc2nnc(-c3cccnc3)n2N)cc1 [SR-01000284323] , pEC50: < 4.85
